assay: qHTS drug screen for cell cycle checkpoint inhibitors in PARPi-resistant BRCA-mutant ovarian cancer cell lines. (AID 1963452); details: PEO1/OlaR viability, CellTiter-Glo luminescence, 96 h; measured here: PEO1 parental Z-AUC; stronger effect = lower value
# Lookup of reported Z-AUC keyed by entry
Returns: the value as a bare number; no unit string appended.

Some solved entries appear below for comparison.
> print(dat)
                                   compound  measurement.type  experimental.value
1             O=C1NCCc2[nH]c(-c3ccncc3)cc21             Z-AUC                  -1
2  CCCNS(=O)(=O)Nc1ncnc(OCCOc2ncc(Br)cn2)c1-c1ccc(Br)cc1             Z-AUC               0.726

# get_value(readout='Z-AUC', item= Cn1c(Nc2ccc(C(F)(F)F)cc2)nc2cc(Oc3ccnc(-c4ncc(C(F)(F)F)[nH]4)c3)ccc21 ) -0.11

Report Z-AUC for Cc1ncc(-c2ccnc(Nc3ccc(S(C)(=O)=O)cc3)n2)n1C(C)C please. -0.968

Consider the compound CCc1ccc(C(=O)Nc2cc(CN3CCN(C)CC3)cc(C(F)(F)F)c2)cc1C#Cc1cnc2ccnn2c1 and give its measured Z-AUC. -1.24
